Where these numbers come from: patent US20040038894A1

# system name: SHP-2 (Rattus norvegicus)
# Construct: RBL-2H3 cells were lysed in NP-40 lysis buffer; endogenous in cells; host or cells: RBL-2H3
# assay comment: Cell lysate adsorption to peptides, anti-SHP-2 immunoblot
# Assay type: binding
# conditions used: RBL-2H3 lysates, peptide on streptavidin beads
recorded endpoint: binding of SHP-2 from cell lysates

{"substance": "KTEAENTATY262SLLK (KTEAENTATYSLLK) [FcγRIIB 1-I260A, point mutant of FcγRIIB ITIM peptide]", "system name": "SHP-2 (Rattus norvegicus)", "recorded endpoint": "binding of SHP-2 from cell lysates", "result": "abolishes the binding"}
{"substance": "DEQDPQEATY303AQLN (DEQDPQEATYAQLN) [p58.2.1-V301A, point mutant of KIR N-terminal ITIM peptide]", "system name": "SHP-2 (Rattus norvegicus)", "recorded endpoint": "binding of SHP-2 from cell lysates", "result": "abolishes the binding"}
